Listing of recorded WS-1 (toxicity on normal cells, fibroblast) by entry.
Tested on: WS-1 cell lines
Assay: Cytotoxicity assay on WS-1 (Example 2)
Assay type: cell-based
Parameters: unit not given here
Settings: Table 7; WS-1, 48 h

INSERT INTO assay_data (compound, system_tested, result) VALUES
  ('COc1cc(O)c(C(=O)CCc2ccc(O)cc2)c2c1CC[C@H](c1ccc(O)cc1)O2', 'WS-1 cell lines', '>50'),
  ('COc1ccc(CCC(=O)c2c(O)cc(O)c3c2OC(c2ccc(O)cc2)CC3)cc1 (racemic)', 'WS-1 cell lines', 26),
  ('O=C(CCc1ccccc1)c1c(O)cc(O)c2c1OC(c1ccc(O)cc1)C(O)C2 (centres unmarked) [XVII]', 'WS-1 cell lines', '>50'),
  ('O=C(CCc1ccccc1)c1c(O)cc(O)c2c1OC(c1ccc(O)cc1)C(O)C2 (centres unmarked) [XVIII]', 'WS-1 cell lines', '>50'),
  ('O=C(CCc1ccccc1)c1c(O)cc2c(c1O)CC(O)C(c1ccc(O)cc1)O2 (racemic) [XIII]', 'WS-1 cell lines', '10.1 ± 0.8'),
  ('O=C(CCc1ccccc1)c1c(O)cc(O)c2c1O[C@@H](c1ccc(O)cc1)CC2', 'WS-1 cell lines', '>50'),
  ('O=C(CCc1ccccc1)c1c(O)cc(O)c2c1OC(c1ccc(O)cc1)C(O)C2 (racemic) [XVI]', 'WS-1 cell lines', '>50');

Attention now shifts to the item below.
Item under review: COc1cc(O)c(C(=O)CCc2ccc(O)cc2)c2c1CCC(c1ccc(O)cc1)O2 (racemic) . Reported WS-1 (toxicity on normal cells, fibroblast)?
16 ± 4

###

System: MRSA strains
Experiment: Antibiotic assay (absorption 660 nm, Example 2), MRSA strains
Format: cell-based, Staphylococcus aureus
Conditions: MRSA 10
Listing of recorded MIC by entry.
Report only the number, with the unit µM understood.

Observed MIC on MRSA strains for O=C(CCc1ccccc1)c1c(O)cc2c(c1O)CC(O)C(c1ccc(O)cc1)O2 (racemic) [XIII] , please.
4.2

Observed MIC on MRSA strains for O=C(CCc1ccccc1)c1c(O)cc(O)c2c1O[C@@H](c1ccc(O)cc1)CC2 , please.
4.65

Observed MIC on MRSA strains for O=C(CCc1ccccc1)c1c(O)cc2c(c1O)CC(O)C(c1ccc(O)cc1)O2 (stereo not drawn) [XV] , please.
7.8

Observed MIC on MRSA strains for O=C(CCc1ccccc1)c1c(O)cc(O)c2c1OC(c1ccc(O)cc1)CC2 (racemic) , please.
1.23

Observed MIC on MRSA strains for O=C(CCc1ccccc1)c1c(O)cc(O)c2c1OC(c1ccc(O)cc1)C(O)C2 (stereo not drawn) [XVIII] , please.
12

###

Listing of recorded pIC50 by entry.
Test system: methicillin-resistant Staphylococcus aureus (MRSA) strains
Assay: Antibiotic assay (resazurin, Example 1), MRSA strains
Type: cell-based
Conditions: MRSA 9; read-out: IC50
Please keep in mind that pIC50 is minus log10 of the molar concentration; only the number is needed.

Consider the worked cases shown below.
INSERT INTO results (molecule, readout_number) VALUES
  ('COc1ccc(CCC(=O)c2c(O)cc(O)c(C/C=C/c3ccc(O)cc3)c2O)cc1 [Compound II]', 5.60),
  ('O=C(CCc1ccccc1)c1c(O)cc(O)c(C/C=C/c2ccc(O)cc2)c1O [Compound III]', 5.64);

Attention now shifts to the item below.
Item under review: COc1cc(O)c(C(=O)CCc2ccc(O)cc2)c(O)c1C/C=C/c1ccc(O)cc1 [Compound I] . Reported pIC50?
5.64

###

Listing of recorded IC50 by entry.
Tested on: S. epidermidis
Assay: Antibiotic assay (resazurin, Example 1), S. epidermidis strains
Details: S. epidermidis 14134
Report only the number, with the unit µM understood.

INSERT INTO assay_data (compound, readout_name, readout_number) VALUES
  ('O=C(CCc1ccccc1)c1c(O)cc(O)c(C/C=C/c2ccc(O)cc2)c1O [Compound III]', 'IC50', 3),
  ('COc1cc(O)c(C(=O)CCc2ccc(O)cc2)c(O)c1C/C=C/c1ccc(O)cc1 [Compound I]', 'IC50', 3.7);

Attention now shifts to the item below.
Item under review: COc1ccc(CCC(=O)c2c(O)cc(O)c(C/C=C/c3ccc(O)cc3)c2O)cc1 [Compound II] . Reported IC50?
3.8

###

System: Corynebacterium jeikeium
Assay: Antibiotic assay (resazurin, Example 1), Corynebacterium jeikeium
Format: cell-based
Details: Corynebacterium jeikeium; Coryne. jeikeium 14139; read-out: IC50
readout_name: pIC50
Please keep in mind that pIC50 is minus log10 of the molar concentration; only the number is needed.

Item under review: O=C(O)c1cn(C2CC2)c2cc(N3CCNCC3)c(F)cc2c1=O [Ciprofloxacin, reference compound] . Reported pIC50?
5.85

###

Test system: Enterococcus faecalis
Assay: Antibiotic assay (resazurin, Example 1), Enterococcus faecalis
Format: cell-based
Conditions: Enterococcus faecalis, Ent. Faecalis 14078; read-out: IC50
readout_name: pIC50
Please keep in mind that pIC50 is minus log10 of the molar concentration; only the number is needed.

Item under review: O=C(O)c1cn(C2CC2)c2cc(N3CCNCC3)c(F)cc2c1=O [Ciprofloxacin, reference compound] . Reported pIC50?
4.82

###

Tested on: Enterococcus faecalis
Experiment: Antibiotic assay (resazurin, Example 1), Enterococcus faecalis
Type: cell-based
Details: Ent. Faecalis 14115; read-out: IC50
readout_name: IC50

Consider the worked cases shown below.
INSERT INTO assay_data (compound, system_tested, readout_name, result) VALUES
  ('COc1cc(O)c(C(=O)CCc2ccc(O)cc2)c(O)c1C/C=C/c1ccc(O)cc1 [Compound I]', 'Enterococcus faecalis', 'IC50', '> 200 µM'),
  ('COc1ccc(CCC(=O)c2c(O)cc(O)c(C/C=C/c3ccc(O)cc3)c2O)cc1 [Compound II]', 'Enterococcus faecalis', 'IC50', '> 200 µM');

Item under review: O=C(CCc1ccccc1)c1c(O)cc(O)c(C/C=C/c2ccc(O)cc2)c1O [Compound III] . Reported IC50?
> 200 µM

###

Tested on: methicillin-resistant Staphylococcus aureus (MRSA) strains
Assay: Antibiotic assay (resazurin, Example 1), MRSA strains
Assay type: cell-based
Conditions: Staphylococcus aureus, MRSA, MRSA1; read-out: IC50
readout_name: IC50 (µM)
Report only the number, with the unit µM understood.

Item under review: O=C(O)c1cn(C2CC2)c2cc(N3CCNCC3)c(F)cc2c1=O [Ciprofloxacin, reference compound] . Reported IC50?
102

###

System: Enterococcus faecalis
Experiment: Antibiotic assay (resazurin, Example 1), Enterococcus faecalis
Assay type: cell-based
Settings: Ent. Faecalis 14115
readout_name: Minimum Inhibitory Concentration (MIC)

INSERT INTO measurements (compound, result) VALUES
  ('O=C(O)c1cn(C2CC2)c2cc(N3CCNCC3)c(F)cc2c1=O [Ciprofloxacin, reference compound]', '(>200) μM'),
  ('COc1ccc(CCC(=O)c2c(O)cc(O)c(C/C=C/c3ccc(O)cc3)c2O)cc1', '(>200) μM'),
  ('COc1cc(O)c(C(=O)CCc2ccc(O)cc2)c(O)c1C/C=C/c1ccc(O)cc1', '(>200) μM'),
  ('O=C(CCc1ccccc1)c1c(O)cc(O)c(C/C=C/c2ccc(O)cc2)c1O', '(>200) μM');

###

System: WS-1 cell lines
Test: Cytotoxicity assay on WS-1 (Example 2)
Type: cell-based
Parameters: unit not given here
Conditions: Table 7; WS-1, 48 h
Listing of recorded WS-1 (toxicity on normal cells, fibroblast) by entry.

INSERT INTO assay_data (molecule, result) VALUES
  ('COc1ccc(CCC(=O)c2c(O)cc(O)c3c2O[C@@H](c2ccc(O)cc2)CC3)cc1', '>50'),
  ('O=C(CCc1ccccc1)c1c(O)cc2c(c1O)CC(O)C(c1ccc(O)cc1)O2 (stereo not shown) [XIV]', '>50'),
  ('COc1cc(O)c(C(=O)CCc2ccc(O)cc2)c2c1CC[C@@H](c1ccc(O)cc1)O2', '>50'),
  ('O=C(CCc1ccccc1)c1c(O)cc(O)c2c1OC(c1ccc(O)cc1)CC2 (racemic)', '16 ± 2'),
  ('COc1ccc(CCC(=O)c2c(O)cc(O)c3c2OC(c2ccc(O)cc2)C(O)C3)cc1 (stereo not shown) [XXI]', '>50');

Item under review: O=C(CCc1ccccc1)c1c(O)cc2c(c1O)CC(O)C(c1ccc(O)cc1)O2 (stereo not shown) [XV] . Reported WS-1 (toxicity on normal cells, fibroblast)?
>50

Item under review: COc1ccc(CCC(=O)c2c(O)cc(O)c3c2OC(c2ccc(O)cc2)C(O)C3)cc1 (racemic) [XIX] . Reported WS-1 (toxicity on normal cells, fibroblast)?
8.2 ± 1.0

Item under review: O=C(CCc1ccccc1)c1c(O)cc(O)c2c1O[C@H](c1ccc(O)cc1)CC2 . Reported WS-1 (toxicity on normal cells, fibroblast)?
>50

Item under review: COc1ccc(CCC(=O)c2c(O)cc(O)c3c2OC(c2ccc(O)cc2)C(O)C3)cc1 (stereo not shown) [XX] . Reported WS-1 (toxicity on normal cells, fibroblast)?
>50

Item under review: COc1ccc(CCC(=O)c2c(O)cc(O)c3c2O[C@H](c2ccc(O)cc2)CC3)cc1 . Reported WS-1 (toxicity on normal cells, fibroblast)?
>50
